# Tested on: E. coli ATCC 25922
Provide the reported MIC of each item.

## Task Entry COc1ccc2[nH]cc(C(=O)C(=O)NCCCNCCCCCCNCCCNC(=O)C(=O)c3c[nH]c4ccc(OC)cc34)c2c1.O=C(O)C(F)(F)F.O=C(O)C(F)(F)F [Compound 19a] : reported MIC = ?
## Result > 200 µM

## Task Entry O=C(NCCCNCCCCCCCCNCCCNC(=O)C(=O)c1c[nH]c2c(F)cccc12)C(=O)c1c[nH]c2c(F)cccc12.O=C(O)C(F)(F)F.O=C(O)C(F)(F)F [Compound 21c] : reported MIC = ?
## Result > 200 µM

## Task Entry CCn1cc(C(=O)O)c(=O)c2ccc(C)nc21 [nalidixic acid, reference compound] : reported MIC = ?
## Result > 200 µM

## Task Entry O=C(NCCCNCCCCCCCNCCCNC(=O)C(=O)c1c[nH]c2c(F)cccc12)C(=O)c1c[nH]c2c(F)cccc12.O=C(O)C(F)(F)F.O=C(O)C(F)(F)F [Compound 21b] : reported MIC = ?
## Result > 200 µM

## Task Entry O=C(NCCCNCCCCCCCCNCCCNC(=O)C(=O)c1c[nH]c2ccc(Br)cc12)C(=O)c1c[nH]c2ccc(Br)cc12.O=C(O)C(F)(F)F.O=C(O)C(F)(F)F [Compound 18c] : reported MIC = ?
## Result > 200 µM

## Task Entry O=C(NCCCNCCCCCCCCCCCCNCCCNC(=O)C(=O)c1c[nH]c2c(F)cccc12)C(=O)c1c[nH]c2c(F)cccc12.O=C(O)C(F)(F)F.O=C(O)C(F)(F)F [Compound 21e] : reported MIC = ?
## Result > 220 µM
